Attribution: the RNAGym collection of RNA variant scans (doi:10.1073/pnas.2313332121)

B1: TPR 5TU (parent)
chain: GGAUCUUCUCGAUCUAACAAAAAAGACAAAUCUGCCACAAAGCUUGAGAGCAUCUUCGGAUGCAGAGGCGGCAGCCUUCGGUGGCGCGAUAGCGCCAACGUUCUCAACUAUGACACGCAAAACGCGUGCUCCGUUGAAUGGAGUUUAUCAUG

variants of: B1; test: polymerase ribozyme fitness, log enrichment relative to wild type (log ratio); higher = more active; in vitro selection for triplet polymerase activity
Fewer inactive variants are shown than the library holds.
Measurement kind: polymerase ribozyme fitness (log ratio)
Lab note: record the figure alone, no unit after it.

G92A C125A U134G: -3.58
G50A C96G C129U: -3.02
A29U G141C: -3.49

Value of polymerase ribozyme fitness (log ratio) reported for the variant C32U G58C C63A is -3.84

Value of polymerase ribozyme fitness (log ratio) reported for the variant C96U A97G is -0.535

Value of polymerase ribozyme fitness (log ratio) reported for the variant C51U C103A is -1.29

Value of polymerase ribozyme fitness (log ratio) reported for the variant C96G U146C is -1.45

Value of polymerase ribozyme fitness (log ratio) reported for the variant A40C G84A G94A C131U U139A is -4.09

Value of polymerase ribozyme fitness (log ratio) reported for the variant C95U C118U is -1.09

Value of polymerase ribozyme fitness (log ratio) reported for the variant G112A U148C is -4.13

Value of polymerase ribozyme fitness (log ratio) reported for the variant A40U G92C A147C is -0.761

Value of polymerase ribozyme fitness (log ratio) reported for the variant C14G G141A is -1.87
